Molecular target: T1, recombinant biotinylated CD71 extracellular domain (Sino Biologics) with an N-terminal 6His tag (human, UniProt P02786 89-760, biotinylated (sites not given))
T1 construct: extracellular domain; also called hCD71; huCD71
T1 sequence (P02786 other isoform, or with tags, fused parts or gaps): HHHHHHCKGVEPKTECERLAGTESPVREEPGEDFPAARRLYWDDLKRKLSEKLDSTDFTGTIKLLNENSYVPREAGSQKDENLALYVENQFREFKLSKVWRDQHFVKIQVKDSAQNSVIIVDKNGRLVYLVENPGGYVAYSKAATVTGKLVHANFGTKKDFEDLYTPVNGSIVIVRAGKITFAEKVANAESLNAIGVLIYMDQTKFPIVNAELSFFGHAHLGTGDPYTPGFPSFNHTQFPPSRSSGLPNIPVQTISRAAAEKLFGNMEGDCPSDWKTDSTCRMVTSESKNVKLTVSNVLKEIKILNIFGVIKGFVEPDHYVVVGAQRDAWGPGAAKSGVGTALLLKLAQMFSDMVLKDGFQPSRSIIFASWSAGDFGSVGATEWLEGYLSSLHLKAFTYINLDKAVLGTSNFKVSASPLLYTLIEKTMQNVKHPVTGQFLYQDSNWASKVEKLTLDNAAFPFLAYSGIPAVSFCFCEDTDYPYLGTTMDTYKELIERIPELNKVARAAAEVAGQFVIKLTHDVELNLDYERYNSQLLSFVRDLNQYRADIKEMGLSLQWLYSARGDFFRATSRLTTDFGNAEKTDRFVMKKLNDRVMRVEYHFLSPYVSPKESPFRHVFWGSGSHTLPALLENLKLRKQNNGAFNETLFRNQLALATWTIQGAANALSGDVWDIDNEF
Assay: screening ELISA, ratio
MEASUREMENT_KIND: hCD71:HSA

P. SEQ ID NO 234 (designed binder, FN3 domain) MLPAPKNLVVSRVTEDSARLSWTAPDAAFDSFYITYWETWDYGEAIVLTVPGSERSYDLTGLKPGTEYKVPITGVKGGGPSVPLSAIFTT
Q. SEQ ID NO 180 (designed binder, FN3 domain) MLPAPKNLVVSRVTEDSARLSWTAPDAAFDSFEISYYEMRGYGEAIVLTVPGSERSYDLTGLKPGTEYSVLIHGVEGGDYSSPLSAISTT
R. SEQ ID NO 289 (designed binder, FN3 domain) MLPAPKNLVVSRVTEDSARLSWTAPDAAFDSFAIPYYEDTNDGEAIVLTVPGSERSYDLTGLKPGTEYWVSIQGVKGGTVSGPLSAIFTT
Arrange these 3 binders in increasing order of hCD71:HSA. List each label, following the requested order. Q, P, R
(Q: 50, P: 94, R: 1060)

I. SEQ ID NO 298 (designed binder, FN3 domain) MLPAPKNLVVSRVTEDSARLSWTAPDAAFDSFPIAYAEPRPDGEAIVLTVPGSERSYDLTGLKPGTEYSVLIHGVKGGLLSSPLSAISTT
II. SEQ ID NO 305 (designed binder, FN3 domain) MLPAPKNLVVSRVTEDSARLSWTAPDAAFDSFEIDYDEPFVYGEAIVLTVPGSERSYDLTGLKPGTEYRVFIFGVKGGNGSWPLSAIFTT
III. SEQ ID NO 160 (designed binder, FN3 domain) MLPAPKNLVVSRVTEDSARLSWTAPDAAFDSFNIAYGEWRQHGEAIVLTVPGSERSYDLTGLKPGTEYDVFIDGVKGGNLSWPLSAIFTT
Order the records by hCD71:HSA, with each subsequent value no larger than the one before. List each label, following the requested order. III, I, II

1. SEQ ID NO 250 (designed binder, FN3 domain) MLPAPKNLVVSRVTEDSARLSWTAPDAAFDSFFIGYLEPYPPGEAIVLTVPGSERSYDLTGLKPGTEYAVEIAGVKGGLLSSPLSAISTT
2. SEQ ID NO 266 (designed binder, FN3 domain) MLPAPKNLVVSRVTEDSARLSWTAPDAAFDSFMIRYQEGTRWGEAIVLTVPGSERSYDLTGLKPGTEYIVMIAGVKGGQISLPLSAIFTT
Thinking about recorded hCD71:HSA values, which is higher, 1 or 2 ? Selection: enter the item's label. 2
(2: 337, 1: 58)
